- target.desc: UniProt Q9NYY3
- Sequence (Q9NYY3 whole entry, looked up): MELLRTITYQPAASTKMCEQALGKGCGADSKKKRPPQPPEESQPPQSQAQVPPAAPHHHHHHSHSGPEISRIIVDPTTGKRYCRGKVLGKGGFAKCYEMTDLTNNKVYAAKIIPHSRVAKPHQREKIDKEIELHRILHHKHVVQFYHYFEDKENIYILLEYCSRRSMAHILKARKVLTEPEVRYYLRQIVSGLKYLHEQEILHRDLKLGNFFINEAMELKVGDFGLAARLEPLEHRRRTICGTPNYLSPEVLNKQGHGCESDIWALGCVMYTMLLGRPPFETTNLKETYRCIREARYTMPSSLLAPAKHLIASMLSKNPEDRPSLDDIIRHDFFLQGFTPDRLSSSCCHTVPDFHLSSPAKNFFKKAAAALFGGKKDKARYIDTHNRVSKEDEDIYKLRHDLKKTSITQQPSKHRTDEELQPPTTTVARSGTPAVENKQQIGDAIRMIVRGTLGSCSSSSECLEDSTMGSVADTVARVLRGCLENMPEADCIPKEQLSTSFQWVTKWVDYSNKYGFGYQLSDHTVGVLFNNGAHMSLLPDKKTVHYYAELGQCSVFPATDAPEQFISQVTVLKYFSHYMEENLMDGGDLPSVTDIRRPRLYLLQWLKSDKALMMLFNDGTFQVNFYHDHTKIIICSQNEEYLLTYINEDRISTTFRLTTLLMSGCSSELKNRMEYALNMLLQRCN
- experiment: KINOMEscan competition binding
- condition.set: compound 10.0 µM
test.readout: kinase still bound, per cent of control (%)
Value expressed in %; do not type the unit.

- compound: "N#Cc1cc(-c2ccnc(Nc3ccc(-n4cnc(-c5cccnc5)n4)cc3)n2)cc(N2CCOCC2)c1"
  kinase still bound, per cent of control / %: 98

// kinase still bound, per cent of control value for CCOc1cc(N2CCC(O)CC2)ccc1Nc1ncc2c(n1)N(C)c1ccccc1C(=O)N2C : 100

kinase still bound, per cent of control for N#C/C(=C1/Nc2ccccc2S1)c1ccnc(NCCc2cccnc2)n1 is 47

// kinase still bound, per cent of control value for CC1=C(C(=O)Nc2cc3cn[nH]c3cc2F)C(c2ccc(C(F)(F)F)cc2)CC(=O)N1 (stereo unspecified) : 86

GET /value?item= Cc1cn(-c2cc(C(=O)Nc3ccc(C)c(NC(=O)c4ccno4)c3)cc(C(F)(F)F)c2)cn1 &field=kinase still bound, per cent of control returns 100

// kinase still bound, per cent of control lookup, compound = CCCS(=O)(=O)Nc1ccc(F)c(C(=O)c2c[nH]c3ncc(Cl)cc23)c1F , result: 83

---

- target.desc: CDKL5 (human) (UniProt O76039)
- Sequence (O76039 whole entry, looked up): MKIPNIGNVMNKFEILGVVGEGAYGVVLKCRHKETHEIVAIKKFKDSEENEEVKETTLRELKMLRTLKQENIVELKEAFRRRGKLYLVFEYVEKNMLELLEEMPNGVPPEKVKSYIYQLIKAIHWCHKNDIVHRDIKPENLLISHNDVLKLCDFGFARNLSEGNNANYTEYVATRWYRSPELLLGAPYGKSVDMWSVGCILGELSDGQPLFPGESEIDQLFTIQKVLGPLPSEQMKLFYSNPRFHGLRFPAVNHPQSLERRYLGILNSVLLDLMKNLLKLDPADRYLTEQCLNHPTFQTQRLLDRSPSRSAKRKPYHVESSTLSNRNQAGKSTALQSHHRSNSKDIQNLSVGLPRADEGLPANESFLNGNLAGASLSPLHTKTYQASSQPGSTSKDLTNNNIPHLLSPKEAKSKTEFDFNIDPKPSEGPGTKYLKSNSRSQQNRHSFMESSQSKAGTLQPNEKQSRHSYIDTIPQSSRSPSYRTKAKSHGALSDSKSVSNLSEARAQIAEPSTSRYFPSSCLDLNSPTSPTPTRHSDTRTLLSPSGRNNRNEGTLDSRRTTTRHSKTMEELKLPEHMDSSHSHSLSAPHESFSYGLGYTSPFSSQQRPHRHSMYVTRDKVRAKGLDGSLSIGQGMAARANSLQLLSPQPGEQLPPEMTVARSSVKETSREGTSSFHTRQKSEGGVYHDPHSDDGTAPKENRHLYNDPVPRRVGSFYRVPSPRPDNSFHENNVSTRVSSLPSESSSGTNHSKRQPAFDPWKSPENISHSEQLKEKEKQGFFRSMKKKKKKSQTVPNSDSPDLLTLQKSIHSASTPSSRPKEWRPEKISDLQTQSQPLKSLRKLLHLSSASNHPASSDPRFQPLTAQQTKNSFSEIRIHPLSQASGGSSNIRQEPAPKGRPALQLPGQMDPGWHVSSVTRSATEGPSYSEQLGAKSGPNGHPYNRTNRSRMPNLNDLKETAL
- experiment: KINOMEscan competition binding
- condition.set: compound 10.0 µM
Mark label 1 only when kinase still bound, per cent of control stays strictly below 50%. Values equal to the cut-off are label 0.

Sample answers from the record:
- molecule: "C=CC(=O)Nc1ccc(C(=O)c2sc(Nc3ccc(N4CCN(C)CC4)cc3OC)nc2N)cc1"
  group: "label 0"
- molecule: "CCOc1cc(N2CCC(O)CC2)ccc1Nc1ncc2c(n1)N(C)c1ccccc1C(=O)N2C"
  group: "label 0"
- molecule: "O=c1[nH]c2ccccc2n1C1CCN(Cc2ccc(-c3nc4cc5[nH]cnc5cc4nc3-c3ccccc3)cc2)CC1"
  group: "label 0"

Could you now look at the following molecule, please?
Incoming: kinase still bound, per cent of control under 50%? Item: COc1cc2ncnc(Nc3cccc(Cl)c3)c2cc1OC
Outgoing: label 0

---

- target.desc: MAP2K5 (human) (UniProt Q13163)
- Sequence (Q13163 whole entry, looked up): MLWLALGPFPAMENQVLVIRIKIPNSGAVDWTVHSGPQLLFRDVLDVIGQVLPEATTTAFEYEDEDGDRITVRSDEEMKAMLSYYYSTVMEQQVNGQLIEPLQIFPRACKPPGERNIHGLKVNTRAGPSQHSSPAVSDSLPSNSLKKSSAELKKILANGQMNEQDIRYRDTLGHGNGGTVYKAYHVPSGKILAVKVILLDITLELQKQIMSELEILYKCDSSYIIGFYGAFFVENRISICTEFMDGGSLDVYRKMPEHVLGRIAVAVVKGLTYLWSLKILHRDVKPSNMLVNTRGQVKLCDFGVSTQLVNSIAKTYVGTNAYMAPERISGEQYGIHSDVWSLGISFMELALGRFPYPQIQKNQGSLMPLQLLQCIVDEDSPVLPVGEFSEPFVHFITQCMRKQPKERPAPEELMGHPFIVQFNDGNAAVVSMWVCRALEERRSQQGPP
- experiment: KINOMEscan competition binding
- condition.set: compound 10.0 µM
// assign 1 if kinase still bound, per cent of control falls strictly below 60%, else -1 (ties count as -1)

Recorded results for 8 molecules are shown here.
- smiles.repr: "N#Cc1cc(-c2ccnc(Nc3ccc(-n4cnc(-c5cccnc5)n4)cc3)n2)cc(N2CCOCC2)c1"
  group: 1
- smiles.repr: "CC(=O)c1c(C)c2cnc(Nc3ccc(N4CCNCC4)cn3)nc2n(C2CCCC2)c1=O"
  group: -1
- smiles.repr: "CCCS(=O)(=O)Nc1ccc(F)c(C(=O)c2c[nH]c3ncc(Cl)cc23)c1F"
  group: 1
- smiles.repr: "CCN(CCO)CCCOc1ccc2c(Nc3cc(CC(=O)Nc4cccc(F)c4)[nH]n3)ncnc2c1"
  group: 1
- smiles.repr: "N#C/C(=C1/Nc2ccccc2S1)c1ccnc(NCCc2cccnc2)n1"
  group: 1
- smiles.repr: "COc1cc2c(Nc3ccc(NC(=O)c4ccccc4)cc3)ncnc2cc1OCCCN1CCOCC1"
  group: 1
- smiles.repr: "C=CC(=O)Nc1ccc(C(=O)c2sc(Nc3ccc(N4CCN(C)CC4)cc3OC)nc2N)cc1"
  group: -1
- smiles.repr: "O=c1[nH]c2ccccc2n1C1CCN(Cc2ccc(-c3nc4cc5[nH]cnc5cc4nc3-c3ccccc3)cc2)CC1"
  group: -1

Consider the record given below.
Incoming: Dear colleague, could you confirm whether kinase still bound, per cent of control of CNC(=O)Nc1ccc(-c2nc(N3CC4CCC(C3)O4)c3cnn(C4CCC5(CC4)OCCO5)c3n2)cc1 falls below 60%? Thanks.
Outgoing: -1
